molecular target: Gal(b1-4)GlcNAc(b1-3)Gal(b1-4)GlcNAc; assay: glycan array binding signal (z-score within array); higher = stronger binding; settings: glycan notation: IUPAC condensed, linker removed
Only a selection was taken, and the strongest signals are over-represented in it overall.
Catalogue of binders with associated glycan array binding signal (z-score)
READOUT KIND: glycan array binding signal (z-score)

DCL-1 (Homo sapiens), Q8IX05 (protein) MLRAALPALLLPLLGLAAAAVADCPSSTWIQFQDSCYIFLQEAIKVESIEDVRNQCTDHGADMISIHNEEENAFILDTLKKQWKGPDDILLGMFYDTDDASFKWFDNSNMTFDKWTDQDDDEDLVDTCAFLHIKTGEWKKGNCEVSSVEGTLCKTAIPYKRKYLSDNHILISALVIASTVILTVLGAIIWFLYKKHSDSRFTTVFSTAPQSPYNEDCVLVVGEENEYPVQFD :: 2.35
SBD-G4S3-Fc (protein) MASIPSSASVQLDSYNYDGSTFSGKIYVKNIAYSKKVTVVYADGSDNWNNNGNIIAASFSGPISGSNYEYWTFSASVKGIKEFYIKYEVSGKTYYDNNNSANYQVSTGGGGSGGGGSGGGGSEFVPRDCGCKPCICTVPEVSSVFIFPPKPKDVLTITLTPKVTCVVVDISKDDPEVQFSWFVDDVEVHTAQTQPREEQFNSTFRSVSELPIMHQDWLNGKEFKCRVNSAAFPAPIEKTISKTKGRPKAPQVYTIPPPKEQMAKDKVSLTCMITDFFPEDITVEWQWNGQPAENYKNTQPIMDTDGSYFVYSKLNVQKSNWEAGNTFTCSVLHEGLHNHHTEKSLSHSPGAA :: -0.054
